Tested on: U87MG human glioma cell line
experiment summary: MTT cell viability assay, U87MG
Assay type: cell-based
condition label: Homo sapiens, U-87 MG; individual drug; 24 hours; mean ± SD; no unit in table, test concentrations given in μM; read-out: Inhibitory Concentration at 50% (IC50) U87MG Cells
Listed compounds paired with reported IC50

Guide cases for IC50, answers given:
compound=O=C(O[C@@H]1Cc2c(O)cc(O)cc2O[C@@H]1c1cc(O)c(O)c(O)c1)c1cc(O)c(O)c(O)c1 tested_target="U87MG human glioma cell line" meas_value="94 µM"
compound="CN(C)C(=N)N=C(N)N.Cl [MET, hydrochloride]" tested_target="U87MG human glioma cell line" meas_value="80 µM"

Attention now turns to another entry.
Input line: What measured IC50 goes with Cn1nnc2c(C(N)=O)ncn2c1=O ?
Output line: 77 µM
